Just for reference, ChEMBL document CHEMBL1201862 is where these values come from.

Listed here are compounds together with their documented IC50.
Molecular target: High affinity choline transporter 1 (Homo sapiens, UniProt Q9GZV3)
Sequence (Q9GZV3 whole entry): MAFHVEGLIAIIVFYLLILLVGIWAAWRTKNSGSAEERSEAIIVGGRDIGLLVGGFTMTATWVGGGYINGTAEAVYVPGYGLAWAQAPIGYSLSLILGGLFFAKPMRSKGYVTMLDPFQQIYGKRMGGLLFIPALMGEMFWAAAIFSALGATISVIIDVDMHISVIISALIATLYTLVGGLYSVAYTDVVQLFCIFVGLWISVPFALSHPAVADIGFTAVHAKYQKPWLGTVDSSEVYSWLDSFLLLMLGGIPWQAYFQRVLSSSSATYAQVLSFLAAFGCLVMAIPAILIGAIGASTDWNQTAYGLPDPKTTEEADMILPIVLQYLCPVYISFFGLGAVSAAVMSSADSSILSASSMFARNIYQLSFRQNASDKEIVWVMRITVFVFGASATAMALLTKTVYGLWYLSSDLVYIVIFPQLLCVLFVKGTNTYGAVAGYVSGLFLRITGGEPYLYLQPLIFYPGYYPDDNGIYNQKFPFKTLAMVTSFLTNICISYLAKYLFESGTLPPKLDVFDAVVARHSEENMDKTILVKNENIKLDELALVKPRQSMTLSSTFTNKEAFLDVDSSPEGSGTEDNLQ
Experiment: human choline transporter blockers, potency – cell-based, 5-point CRC, membrane potential dye, dose response (AID 504840)
Format: functional
Activity calls are given as the source filed them. No rule for the calls is given here.

For orientation, consider the following solved cases.
compound	meas-value
C=CCn1cc(C(=O)NCCCN(CC)CC)c(=O)c2cc(S(=O)(=O)N3CCC(C)CC3)ccc21	13.2 µM (active)
Oc1cccc(C(O)CNCc2ccc(OCc3ccc(Cl)cc3Cl)cc2)c1 (stereo not drawn)	1.82 µM (active)

Note down IC50 recorded for `Cc1ccc(S(=O)(=O)Oc2ccc(/C=C3/C(=N)N4C(=NC3=O)SN=C4S(C)(=O)=O)cc2)cc1` 13.8 µM (active)
